All values here come from patent US8946268B2.

assay: Pharmacokinetics in rats after oral administration; assay type: in vivo, SD rat; details: Sprague-Dawley, rat, serum, po, 20 mg/kg, oral 20 mg/kg, SD rat; individual rats No. 1-3
result_type: half-life
Just so you know, I need the unit written after the number.

Any idea what its half-life is? The compound is Cc1cc(OC(C)C)cc(C)c1-c1csc(NC(=O)c2ccncc2)n1 4.53 h

* * *

assay: Pharmacokinetics in rats after i.v. injection; assay type: in vivo, SD rat; settings: Sprague-Dawley, rat, serum, iv, 2 mg/kg, compound 95 i.v., formulation and route otherwise identical to compound 82, SD rat; Mean; read-out: MRT
result_type: MRT (h)
Numbers only here, please. The scale is h.

Any idea what its MRT is? The compound is COc1ccc(Oc2cc(C)c(-c3csc(NC(=O)c4ccncc4)n3)c(C)c2)cc1 143

* * *

tested on: Hela; experiment: Antiproliferative activity (MTS assay), Hela; format: cell-based; details: Homo sapiens, HeLa, 96 h, Hela cells
result_type: IC50 (µM)
Numbers only here, please. The scale is µM.

Worked examples, 2 compounds total:
# compound, IC50, µM
measured = [
    ("Cc1cc(C)c(-c2csc(NC(=O)Cc3ccncc3)n2)c(C)c1", 0.62),
    ("Cc1cc(C)c(-c2csc(NC(=O)c3ccnnc3)n2)c(C)c1", 8.75),
]

Any idea what its IC50 is? The compound is Cc1cc(C)c(-c2csc(NC(=O)c3ccnc(Cl)c3)n2)c(C)c1 0.84

Any idea what its IC50 is? The compound is COc1ccc(-c2csc(NC(=O)c3ccnc(Cl)c3)n2)cc1 5.92

Any idea what its IC50 is? The compound is COc1ccc(Oc2cc(C)c(-c3csc(NC(=O)c4ccncc4C)n3)c(C)c2)cc1 0.9

Any idea what its IC50 is? The compound is Cc1cc(Nc2ccccc2)c(Br)c(C)c1-c1csc(NC(=O)c2ccncc2)n1 0.87

Any idea what its IC50 is? The compound is Cc1cc(OCC(C)O)cc(C)c1-c1csc(NC(=O)c2ccncc2)n1 (centres unmarked) 0.23

Any idea what its IC50 is? The compound is Cc1ccc(-c2csc(NC(=O)c3ccncc3)n2)cc1 1.05

Any idea what its IC50 is? The compound is COc1ccc(Oc2cc(C)c(-c3csc(NC(=O)c4ccnc([N+](=O)[O-])c4)n3)c(C)c2)cc1 0.33

Any idea what its IC50 is? The compound is COc1ccc([S+]([O-])c2cc(C)c(-c3csc(NC(=O)c4ccncc4)n3)c(C)c2)cc1 (centres unmarked) 0.18

Any idea what its IC50 is? The compound is COc1ccc(Oc2cc(C)c(-c3csc(NC(=O)c4ccnc(N)c4)n3)c(C)c2)cc1 0.24

Any idea what its IC50 is? The compound is O=C(Nc1nc(-c2c(F)cc(F)cc2F)cs1)c1ccncc1 1.12

* * *

Tested on: Hela
Assay: Antiproliferative activity (MTS assay), Hela
Assay type: cell-based
Conditions: Homo sapiens, HeLa, 96 h, Hela cells
Protocol: Antiproliferative effect is expressed as IC50 values in microMolar final concentration. Cells were grown at 37° C. in a humidified atmosphere with 5% CO2 and 95% air. Cells were seeded in 96 well tissue culture plates. Compound treatment started after overnight incubation of cells (TO). […] Cell viability was then determined by MTS assay using CellTiter 96® AQueous non-radioactive cell proliferation assay system (Promega). […]
result_type: pIC50
Quick note: pIC50 values are minus log10 of concentrations in mol/L.

# smiles_record, pIC50
records = [
    ("CCOc1cc(C)c(-c2csc(NC(=O)c3ccnc(F)c3)n2)c(C)c1", 7.52),
    ("Cc1cc(-c2ccccc2)cc(C)c1-c1csc(NC(=O)c2ccncc2)n1", 6.32),
    ("COc1cc(C(=O)Nc2nc(-c3c(C)cc(C)cc3C)cs2)ccn1", 5.76),
    ("Cc1cc(C)c(-c2csc(NC(=O)c3cncs3)n2)c(C)c1", 5.82),
    ("COc1ccc(Sc2cc(C)c(-c3csc(NC(=O)c4ccnc(F)c4)n3)c(C)c2)cc1", 7.40),
]

Any idea what its pIC50 is? The molecule is Cc1cc(C)c(-c2csc(NC(=O)c3cc(F)nc(F)c3)n2)c(C)c1 5.94

Any idea what its pIC50 is? The molecule is COc1ccccc1Oc1cc(C)c(-c2csc(NC(=O)c3ccncc3)n2)c(C)c1 6.48

* * *

test system: Hela; assay: Antiproliferative activity (MTS assay), Hela; assay type: cell-based; conditions: Homo sapiens, HeLa, 96 h, Hela cells
pIC50: −log10 of the molar value.
Entries annotated with measured pIC50

Worked examples, 5 compounds total:
# smiles_record, result_type, result
rows = [
    ("COc1cc(-c2csc(NC(=O)c3ccccn3)n2)ccc1O", "pIC50", "< 5.00"),
    ("COc1cc(-c2csc(NC(=O)c3cncs3)n2)ccc1O", "pIC50", "< 5.00"),
    ("COc1cc(-c2csc(NC(=O)c3ccncc3)n2)cc(OC)c1OC", "pIC50", "< 5.00"),
    ("O=C(Nc1nc(-c2ccc(O)cc2)cs1)c1ccncc1", "pIC50", "< 5.00"),
    ("Cc1ccc(-c2nc(NC(=O)c3ccncc3)sc2C)cc1", "pIC50", "< 5.00"),
]

Entry COc1ccccc1CC(=O)Nc1nc(-c2ccccc2)c(C)s1 , system Hela: what pIC50 was measured? < 5.00

Entry Cc1ccc(-c2nc(NC(=O)c3cccnc3)sc2C)cc1 , system Hela: what pIC50 was measured? < 5.00

* * *

system: Hela; test: Antiproliferative activity (MTS assay), Hela; type: cell-based; details: Homo sapiens, HeLa, 96 h, Hela cells
result_type: IC50

# smiles_record, IC50
data = [
    ("COc1ccc(-c2csc(NC(=O)CCc3ccccc3)n2)c(F)c1", "> 10 µM"),
]

Any idea what its IC50 is? The molecule is COc1ccc(-c2nc(NC(=O)c3ccccn3)sc2C)cc1 > 10 µM

Any idea what its IC50 is? The molecule is COc1ccc(-c2csc(NC(=O)c3ccncc3)n2)cc1 > 10 µM

Any idea what its IC50 is? The molecule is COc1ccc(-c2csc(NC(=O)c3ccccn3)n2)c(OC)c1 > 10 µM

* * *

test system: Hela; assay: Antiproliferative activity (MTS assay), Hela; format: cell-based; conditions: Homo sapiens, HeLa, 96 h, Hela cells
pIC50: −log10 of the molar value.
result_type: pIC50

Worked examples, 4 compounds total:
# compound, pIC50
measured = [
    ("COc1ccc(-c2nc(NC(=O)c3cccnc3)sc2C)cc1 [Compound 14]", "< 5.00"),
    ("Cc1cc(C)c(-c2csc(NC(=O)c3ccccn3)n2)c(C)n1 [Compound 45]", "< 5.00"),
    ("Cc1cc(C)c(-c2csc(NC(=O)c3cc(Cl)nc(Cl)c3)n2)c(C)c1 [Compound 88]", "< 5.00"),
    ("COc1ccc(-c2csc(NC(=O)c3ccncc3)n2)c(F)c1 [Compound 26]", "< 5.00"),
]

Any idea what its pIC50 is? The compound is Cc1cc(C)c(-c2csc(NC(=O)c3ccnc(N(C)C)c3)n2)c(C)c1 [Compound 92] < 5.00

Any idea what its pIC50 is? The compound is CC(=O)Nc1cc(C)c(-c2csc(NC(=O)Nc3ccncc3)n2)c(C)c1 [Compound 68] 5.29

Any idea what its pIC50 is? The compound is Cc1cc(C)c(-c2csc(NC(=O)c3cccnc3)n2)c(C)n1 [Compound 46] < 5.00

Any idea what its pIC50 is? The compound is COc1ccc(Oc2cc(C)c(-c3csc(NC(=O)c4ccnc(F)c4)n3)c(C)c2)cc1 [Compound 98] 7.40

Any idea what its pIC50 is? The compound is Cc1cc(C)c(-c2csc(NC(=O)c3ccncc3F)n2)c(C)c1 [Compound 77] 5.64
